Attribution: the supplement of paper PMC10201428

System: VchCAST RNA-guided transposition machinery (E. coli BL21(DE3) host, lacZ target)
Assay: relative integration efficiency (T-RL orientation) vs wild-type transposon end (log2 (normalized fold change)); transposon end mutated: right end (5 bp flank + 75 bp right end); higher = more efficient transposition
Binning of relative integration efficiency (log2) into classes: class 1 (below -3), class 2 (-3 to below -0.7), class 3 (-0.7 or more)

| SEQUENCE_RECORD | CLASS_LABEL |
| --- | --- |
| ACATTTGTTGATACAACCAATAAAAGATTATTACCCCCATTAATTGATAATGATGACACCGAATTTAACTATAACGCTCTGATCATAGTCAGACCAACATTGCTACGACCCGTATTCGCACCGACAC | class 1 |
| ACATTTGTTGATACAACCATAAAATGATAATTACACCCATAAATTGATAATTATCACACCCATAAATTGATATTGCCTCTCGCGAGAGGCCGGCAGCCGTCTGGCGTCGGGTGGCGGGCACCGACAC | class 3 |
| ACATTTGTTGATACAACCATAAAATGATAATTACTCTGATCACCCATAAATTGATAATTATCACACCCATAAATTGATATTGCCATAGTCAGACCAACATTGCTACGACCCGTATTCGCACCGACAC | class 1 |

Prompt: Kindly identify the class of `ACATTTGTTGATACAACCATAAAATGATCATTACCCCCATCAATTGATAATTATCACACCCAATTTAACTATAACGCTCTGATCATAGTCAGACCAACATTGCTACGACCCGTATTCGCACCGACAC` .
Response: class 1

Prompt: Could you place `ACATTTGTCGATACAACCCTAAAATGATAATTACACCCATAAATGGATCATTATCACACCCAATTTAACTATAACGCTCTGATCATAGTCAGACCAACATTGCTACGACCCGTATTCGCACCGACAC` in its proper category? Many thanks.
Response: class 1

Prompt: # bin lookup: classify `ACATTTGTTGATACAACCATAAAATGATAATTACACCCATAAATTGATAATTATCACACCCATAAATTGATATTGCCTCTGTACCGTTCGTATACGATACATTATACGAAGTTATTCGCACCGACAC` by its relative integration efficiency (log2)
Response: class 2

Prompt: Which class does `ACATTTGTTGATACAACCATAAAATGATAATTACACCCATAAATTGATATTGCTCACACCCATAAATTGATAATTACTCTGATCATAGTCAGACCAACATTGCTACGACCCGTATTCGCACCGACAC` fall in?
Response: class 3

Prompt: Quick check: band for `ACATTTGTTGATACAACCATAAAATGATAATTACACCCATAAATTGATAATTATCACACCCATAAATTGATATTGCCTCTGATCATAATTGTTATCCGCTCACAATTCCAGTCAGACGCACCGACAC`
Response: class 3

Prompt: Lab note: sort `ACATTTGTTGATACACCCATAAATTGATAATTACAACCATAAGTTGATATTTTTCACACCCATAAATTGATAATTACTCTGATCATAGTCAGACCAACATTGCTACGACCCGTATTCGCACCGACAC` into the matching relative integration efficiency (log2) band.
Response: class 3

Prompt: Pick a category. Item: `ACATTTGTTGATACAACCATAAAATGATAATTACAACCATAAGTTGATATTTTTCACACCCATAAATTGATAATTACTCTGATCATAGTCAGACCAACATTGCTACGACCCGTATTCGCACCGACAC`
Response: class 3

Prompt: Which category does the recorded relative integration efficiency (log2) put `ACATTTGTGGATACAACCATAAAATGATAATTACCACCCCTAAATTGATAATTATCACACCCATTTAACTATAACGCTCTGATCATAGTCAGACCAACATTGCTACGACCCGTATTCGCACCGACAC` in?
Response: class 2

Prompt: Bin? `ACATTTGTTGATACACCCATAAATTGATAATTACACCCATAAATTGATAATTATCACACCCATAAATTGATAATTACTCTGATCATAGTCAGACCAACATTGCTACGACCCGTATTCGCACCGACAC`
Response: class 3

Prompt: Which relative integration efficiency (log2) band matches `ACATTTGTTGATACAACCATTAAATGCTAATTCCACCCATAAATTGATAATTATCACACCCAATTTAACTATAACGCTCTGATCATAGTCAGACCAACATTGCTACGACCCGTATTCGCACCGACAC` ?
Response: class 2
